- assay: label from the status in PepcDB records

sequence.code	protein production
MPDLTRRNFSNLLSFPMPDTRPAKAGGQPRPFFRLGVVRFGLATALALFWVGAFASTATGQRTSRTPDQLENVGVDQKLGATIPKDLSFQNEQGEPVRLSQYFDGSTPVMLTLNYHRCPQLCRIQLQKFTKSLSGMSWTAGDKFKVLTVDISPYEGPKMARKAQERYATFLDRPEETVDGWHFLTGNQAAIETLTDSVGFRYQPLPEKEKQFAHPTTIIFLSGDGTITRYFTTLDPAPGDLRTALVEASDGTVGNVVDKAFLACARFNPDSNSYSASAFKLMQYGSVLTVIVMGAALFVFWRRENEQLETAHEEGLNAMVDEQA	failed
MRKTKTEALKTKEHLMLAALETFYRKGIARTSLNEIAQAAGVTRGALYWHFKNKEDLFDALFQRICDDIENCIAQDAEDAEGGSWAVFRHTLLHFFERLQSNDIYYKFHNILFLKCEHTEQNAAVIAIARKHQAIWREKITAVLTEAVENQDLADDLDKETAVIFIKSTLDGLIWRWFSSCERFDLGKTAPRIIGIMMDNLENHPDLRRK	not failed
MVRIRWFFIRHAESEANVVERWRIAGRSEAARLTERGERQARVVGEAVAIRLEQVLRVDGGDAGGVSGDAGRRRVLAPVAFTSPLLRARQTAALVLEQVAQPVKLEPVDDLAEVYQGLWEDALRSEVHTPETLQAMARNPYEFRAPGGEAQADVERRVLRAVSRMSQRVLSLLSLELEENEQTDVIVLVFTHGYVCKCLIRSVLDASPHLTGQIQVDNGALVELWLEPAAQQGALTSAAELGMWTVLRINDTWGQLTASMR	failed
MEIHSSAAAEVFPVCRSLLGKLPAHSHNRSVAPTVCDYYPQIMKTYNSKMTTQHSSDIRNSQNISASFVTPHDAPVTSRKYVPKFNSNNHRIKTAAAFEKGSDIYHAVRPNYPNSVIELLNLSPNSRVLDIGCGTGKLTEQIAQQTSSVYALDPSKDMLDSFRSTLDIPSWQATAEQTAVSDSRFSTLTCAQTWHWVEPLAASAELDRISTDDAQLLLVWNTLDVSVPWVHRLSRIMHSGDTLAEGFIPHVAQPWELVSVLRGKHAQELYPDQIHTLAHTRSYWLRASEKTREKLTHNLSWYLTDHLELPSTSLVEIPYRFDAFLYKKALVKTQ	failed
MKYLCLIYFDEAKLAAVPAEELAAIVDECMTYSDQLGKAGHYIASHALQSVQTATTLRHQGGRLAMTDGPFAETKEQLGGFYLIEARDLNQALQIAAKIPPGRLGCVEVRPVKEWE	not failed
MDPLVSFFDGMAQASWLRPVHDRLKKGTGSWANRAVLDVGCGTGRLLARGVHEAAHLAGVDLSKQMVLATEERLHEHKQCGRLTVVQGDAYDLPFADESFDVCLSTCVMFLLPEPERGMKEMIRVLNGAGVIGMLNPTNKMNHAAAKAYCKKSGITGFEEKTLLQWSNVSTRRHRYTAEQLTHFFKQHGAWVVTHELVLDGLAVVTVASWNKLEHHHHHH	failed

---

- assay: label from the status in PepcDB records
observed.property: protein production

sequence.code	observed.property	reported.measurement
MINLAVLGLYLLIGFILKRTGKCPENSAQVLNLYVIYAALPGVIFSKVPALEFSTDLLIPVVIPWVLLAFSAVFIWLLGRAFKWPREVVGALLICVPLGNTSFFGFPMIEAFYGSDAIVYGLLYDQFGSFFGLAIYSTIVIALYREQDNKPTVASVTRQIVTFPPFIALIIALLTKSLVYPEVFQRLIDSLAVTLVPVIMIAVGFQLKFRLPKGSKTPLTIGLLTKLVLMPLITVGLLYGFGFDSTLVQVTIFESAMPPMITAGAVAIMAGLAPRLSAAMVGYGILFAFVSLPIVYQLLQLLSAH	protein production	failed
MTKKEKGTMMTLAAGLAWGISGISGQYLMSHGVHVNLLTSLRLLITGIFLLSLARSKQKEHLVAAWKQPKFLKQVLLFSIFGLVLNQYAFLRAIHLTNAGTATVLQYMAPILILSIVCILNRQRPTSFEIIAIAMAILGTYMIATHGKLGSLAITPKGLMWGLGSAITYSIYILLPVKLIHEWGSTIVIGSGMFIGGILFSLVTKAWQYPLQINVMSILAYIGIIGIGTIFAYTFFLKGVSIVGAVKGSLLASVEPVSSVFLTVLVLGEIFYPIDLLGMLFIFLAVTLISYKDLIALKKMKRVR	protein production	failed

---

- assay: label from the status in PepcDB records
observed.property: protein production

sequence.code	reported.measurement
IGPSSSHTMGPMTAANVFRDHVDQLVSQTPDDLNYRVYCVLKGSLAFTGRGHATDRAVALGLHGHSPVSLAGEDVNALTAKLWATDTLQLTSGREIGFNPEDDIVFDKSDPLPQHPNGMIFYLLDEEGKKILSETFFSIGGGFICTLAEINQ	not failed
MYAVPILNVYDFEVKKDKETSYKSATEDYVNKTMGVEQGVLGLFAATDERDKTTSYIVEIYNDYLAFSNHTKNQASKDFKAVIPQIAEGNLNSAEIDVQIAKDKKIEQNDNTFAVYTVIDVKPENDKEFAEIIKNIVETTFNEEGTLLVYLGTDRRNFNKWCLFEVYKDIDSYLNHRSAKYFKDYITQTKDMIAGKKRAELQVLKIENKGGLDYKKLY	not failed

---

- assay: label from the status in PepcDB records

sequence.code	protein production
MNTSFIKTLMTTNAGFAALALRIPTAIIFIAHGAQKLFGSFGGYGLEGTGQWMASIGLEPGYQLALLAGSAEFFGGIALLIGLLVRPAALMLSVTMVVAIFSVHFANGLFMTNNGYEFALALLAVSFSLMFSGAGKLSLDNLLAEKLA	failed
MPFHGDAQENTWPNSRASPMSLASKLPRFRWLLPAFVVLVGVVLTIVMHWDDRAGLWWKESQASQQQRDESIWLPGYRVVIDAKPLQGLEEEETSDLAYNPATRTLFTVTGKRPLLVELSLTGDVLRTIPLLGLSNPEGVAVLENGNVAVTDERRNTLTIFHVDPQTAELSTKSLAEFPLGNIGKKNKGFEGIAWDPRQQRLLLSKERDPMTLFSWKSDGGPSLSGAMTALPSDDLYMRNVSALSVDPRTGHTLVLSAESHLLLELDEKGEPVSFISLLGGFNGLDSKIPRAEGVAIDDEGTIYMVSEPNLFYVFRKKSGERLATSDADLEHHHHHH	failed
MTKYKVALFDLDNTLLKTEDASVAALTYALNQDGVEVTPQAIVELMGLPGIDMARELGSSNPAKTIDIFNERINQEVDLIKEYDGIDEMFAGLRELGIEYGIVTSKLRRVFDDEMRSFPKIRAIEKVVLSDDTKKHKPHADPIEFGMQKYFPKLNRADVIYVGDSLFDMQSAHAAGVDFANAGWGAIPANDFSEAEYILKTPTDLLEIV	failed

---

- assay: label from the status in PepcDB records

sequence.code	protein production
MVEFLNKKKKSAQRPINLNGSFIFILILTFEFERRVKVDTADIFQRTMMLIGEDGLKKLSNVNIAVCGLGGVGSFAFEALVRCGIQNFVILDKDRVSVSNLNRQLIATVSNIGKSKVDIAYERALDINPFVNVVKVQKEINPENVEELLGNTKIDYIVDAIDDVSAKIALIKFAISRGIKIISSMGMGNRLNPSLLRISDIYSTKNCPLAKKIRSILRKEGIKKLKVVYSEEKPLKPDYKFLKEKTQKAHVPGSISFVPPVAGFLMAYEVVKDLLGW	failed
MTPAARLSAAIGILDRILGGTPAEQALTNWGRASRFAGSGDRAAVRDLVFDALRCRRSFARAGGAETGRGLVLGGLRMAGQEVGDLFTGEGHAPAPPAGSELKPQAPAELEALDCPDWLAPALRDSLGADFAPVMEALRHRAPVFLRVNLARTDRAAAAAELAAEGIVTQPHPLAETALEVTENPRRLQASAAYREGRVELQDAASQAIVAALPLAPGDRVLDYCAGGGGKSLAMAARAPIDLSAHDADPRRMRDLPERAARAGVKVRRLAPGDPARRGPFDLVLADVPCSGSGSWRRAPEGKWSLTPERLAELRAIQSTILDEVAPLVRPGGHLAYATCSLLASENAGQTEAFLERTSGWTRVHQLRLTPLDGGDGFFLDLLQRNG	failed
MQLSAPPYEERLTAPRTWWLMCFLVGVSMALILLPFGTLPLLGGLVGGTAVAAVVASSYGSIRIRVVGDSLIAGEAKIPVAALGEAEIMDQEEARAWRTYKANPRAFMLLRSYIPTALRVEVTDPQDPTPYLYLSTREPERLAAALKAARTEA	failed

---

- assay: label from the status in PepcDB records

sequence.code	protein production
MTALFFENFAPGHFGRYGPRRVTREEIIAFASEYDPQPMHLDDHAANASMLKGMSGSGWHLSSLMMRMMYDGFIKDTASLGSPGVDEMRWMSPLRPGDDLLLDVEVIEARVSKSRPETGIVTFKCYVRNGHGQMLSEMVSPIIVKRRDAD	failed
MTQTGSARFEGDSWDLASSVGLTATMVAAARAVAGRAPGALVNDQFAEPLVRAVGVDFFVRMASGELDPDELAEDEANGLRRFADAMAIRTHYFDNFFLDATRAGIRQAVILASGLDSRAYRLRWPAGTIVFEVDQPQVIDFKTTTLAGLGAAPTTDRRTVAVDLRDDWPTALQKAGFDNAQRTAWIAEGLLGYLSAEAQDRLLDQITAQSVPGSQFATEVLRDINRLNEEELRGRMRRLAERFRRHGLDLDMSGLVYFGDRTDARTYLADHGWRTASASTTDLLAEHGLPPIDGDDAPFGEVIYVSAELKQKHQDTR	not failed
MIRLSNENTIFFMDKENVPIASCQSGDTVIFETKDCFSDQITNEEQALTSIDFNRVNPATGPLYVEGARRGDMLEIEILDIKVGKQGVMTAAPGLGALGESLNSPTTKLFPIEGDDVVYSTGLRLPLQPMIGVIGTAPPGEPINNGTPGPHGGNLDTKDIKPGTTVYLPVEVDGALLALGDLHAAMGDGEILICGVEIAGTVTLKVNVKKERMFPLPALKTDTHFMTIASAETLDAAAVQATKNMATFLANRTALSIEEAGMLLSGAGDLYVSQIVNPLKTARFSLALHYFEKLGVDLCN	not failed
MERVQRLRLTFGKTGEMTLLSHLDLLRLFERAVRRAHLPIAFSGGFHPSPRISTASALPLGVTSYGEIVDLEFYREVDAQTVLEQLRQQLPQEIPLYGCEVVPLSEPAASQALRAATYELLIRTPEPLERETWEQWLETLRATPEILYELTTKSGKTLEHHHHHH	failed
MRPAHICLAVLVAAVWGVNFTVIEVGLAHFPPLLFSALRFLAAALPAVFFVGRPKVAWKWIVAVGLVLGVAKFGLLFIGMDAGMPAGLSSLVLQIQAVFTALIAFAALGERPTGIRLAGMAVALCGVGLAAVDEGTGGPLGAFALVIGAAVCWGASNVLTRKASPPDPLNFMVWVSTVPVVPLLGLSLLTEGPSADLNALGSLDWQGAGVILYVAWITTVFGFGAWGWLLHRHPASTVAPFSLLVPVFGMSSAALFLGEPIGPMRWGAAALLAGGVALTSLAPGKERSGGPNTLDLRGVGIHEAGR	failed
MPSEVTEEFIIIIAVVLIGLVLFGFVTSYFIPHEIFSLAQQQASSISSSTTVSVGPLIFNSGSASTVIEAYNPAISGNITLIVFPEPSYLQQDVGLVTPQSPPQFSVYLSNEKLAKSFTISIPIYDVNGRIIYDSQITAYTVPFNTPVTITVNGVGGSNYILIVWVLYNSNGYWFRIGYTFTGVPST	failed
MPCRGLHAIPAGPPEFPELATIYVVCGDKLNVMIDAGVTNSIMDSSFLEKLDLVILTHIHIDHIGLLPEILDRYKNAKVMIKNGFKKFLTTEDGVRRLNESSEKVLGDLYYIYGEFTKIDPDKVVEVEGGEMIDIGDGKTLKIIYTPGHAKHHISVVSDDILFTGDSGGAYFNGAVIPTTPPPLDYDNYVNSLRLQISLKPKVVGLAHGGLVSPNILEQHLDQMLGKESFDIGEIDIGGIGGEILRKQVEVNLRGLNEALGRNKKTLLEHHHHHH	failed
MSDTPYSLKGPARPTASTRNGKGRQDARWAERRREAAIAKLKAELAAQAALIAGQEVALAHSRKIFDRASVAARIGVWECSLPGEQLHWTDVVYDLFDLPRGAALDRSEIIKCYPAESRKALDSLRSRAIAERSGFTLDAEITTFAGHSRWIRITATVECEADVPVRIFGMKQDITEEKILSDRMRYLAEFDPMTGLANRARFQARLAQPDASRPLGALLLIDLDGFKAVNDTFGHVVGDECLKAAAERLAEGCGEADLVARVGGDEFAVLLGSHLDRAAVSGVAREIIEGMGKPVVVRGQSLRLGASVGIAFAGQGAPCDLFAQADTALYAAKAAGRNTFRIFKAEAGGKDRSAAA	failed
MGHHHHHHSHMTCGAWEMKERLGTGGFGNVIRWHNQETGEQIAIKQCRQELSPRNRERWCLEIQIMRRLTHPNVVAARDVPEGMQNLAPNDLPLLAMEYCQGGDLRKYLNQFENCCGLREGAILTLLSDIASALRYLHENRIIHRD	failed
MSLIVVTGGAGFIGSHVVDKLSESNEIVVIDNLSSGNEEFVNEAARLVKADLAADDIKDYLKGAEEVWHIAANPDVRIGAENPDEIYRNNVLATYRLLEAMRKAGVSRIVFTSTSTVYGEAKVIPTPEDYPTHPISLYGASKLACEALIESYCHTFDMQAWIYRFANVIGRRSTHGVIYDFIMKLKRNPEELEILGNGEQNKSYIYISDCVDAMLFGLRGDERVNIFNIGSEDQIKVKRIAEIVCEELGLSPRFRFTGGDRGWKGDVPVMLLSIEKLKRLGWKPRYNSEEAVRMAVRDLVEDLDEEGHHHHHH	not failed
MAMSLSGAVLSGMGSSFHNVGAKQSGVGTVRVGRKSELVVVAQRKKSLIYAVKSDGNILDDLNEATKKASDFVTDKTKEALADGEKTKDYIVEKTIEANETATEEAKKALDYVTEKGKEAGNKAAEFVEGKAEEAKNATKS	failed
MQYANAYQAYQHNRVSVESPAKLIEMLYEGILRFSSQAKRCIENEDIEKKIYYINRVTDIFTELLNILDYEKGGEVAVYLTGLYTHQIKVLTQANVENDASKIDLVLNVARGLLEAWREIHSDELA	failed
